Biological target: PGAM1 (Homo sapiens, UniProt P18669)
Construct: His6 (C); made in house
Sequence (P18669 whole entry): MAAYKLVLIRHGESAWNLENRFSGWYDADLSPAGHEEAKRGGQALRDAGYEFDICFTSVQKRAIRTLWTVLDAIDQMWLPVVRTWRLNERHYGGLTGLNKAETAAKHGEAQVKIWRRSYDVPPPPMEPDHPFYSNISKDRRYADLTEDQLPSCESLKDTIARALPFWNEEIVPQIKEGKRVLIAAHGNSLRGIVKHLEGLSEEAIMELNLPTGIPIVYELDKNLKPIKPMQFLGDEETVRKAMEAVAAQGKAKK
Experiment: PGAM1 enzymatic assay (enolase-pyruvate kinase-LDH coupled, OD 340 nm)
Assay type: biochemical
Conditions: optimized enzymatic assay; mean ± s.d. (n = 3)
pIC50: −log10 of the molar value.
value.kind: pIC50

{"columns": ["compound", "assayed.system", "value.kind", "qualifier.symbol", "recorded.measurement"],
 "data": [
  ["O=C1c2ccccc2C(=O)c2c1cc(NS(=O)(=O)c1ccc(Cl)cc1Cl)c(O)c2O [Compound 9j]", "PGAM1 (Homo sapiens, UniProt P18669)", "pIC50", "=", 6.55],
  ["O=C1c2ccccc2C(=O)c2c1cc(NS(=O)(=O)c1ccc(F)cc1)c(O)c2O [Compound 9f]", "PGAM1 (Homo sapiens, UniProt P18669)", "pIC50", "=", 6.27],
  ["O=C1c2ccccc2C(=O)c2c1cc(NS(=O)(=O)c1ccc(OC(F)(F)F)cc1)c(O)c2O [Compound 9c]", "PGAM1 (Homo sapiens, UniProt P18669)", "pIC50", "=", 6.05],
  ["O=C1c2ccccc2C(=O)c2c1cc(NS(=O)(=O)c1ccc([N+](=O)[O-])cc1)c(O)c2O [Compound 9b]", "PGAM1 (Homo sapiens, UniProt P18669)", "pIC50", "=", 6.33],
  ["O=C1c2ccccc2C(=O)c2c1cc(NS(=O)(=O)c1ccccc1Br)c(O)c2O [Compound 9n]", "PGAM1 (Homo sapiens, UniProt P18669)", "pIC50", "=", 6.70],
  ["O=C1c2ccccc2C(=O)c2c1cc(NS(=O)(=O)c1ccc(C(F)(F)F)cc1)c(O)c2O [Compound 9a]", "PGAM1 (Homo sapiens, UniProt P18669)", "pIC50", "=", 6.27],
  ["O=C1c2ccccc2C(=O)c2c1cc(NS(=O)(=O)c1ccc(Cl)cc1)c(O)c2O [Compound 9i]", "PGAM1 (Homo sapiens, UniProt P18669)", "pIC50", "=", 6.57],
  ["O=C1c2ccccc2C(=O)c2c1cc(NS(=O)(=O)c1cccc(Br)c1)c(O)c2O [Compound 9o]", "PGAM1 (Homo sapiens, UniProt P18669)", "pIC50", "=", 6.46],
  ["O=C1c2ccccc2C(=O)c2c1cc1c(c2O)OCCN1S(=O)(=O)c1ccc(Cl)cc1 [Compound 14e]", "PGAM1 (Homo sapiens, UniProt P18669)", "pIC50", "<", 5.00],
  ["O=C1c2ccccc2C(=O)c2c1cc(NS(=O)(=O)c1ccccc1OC(F)(F)F)c(O)c2O [Compound 9d]", "PGAM1 (Homo sapiens, UniProt P18669)", "pIC50", "=", 5.66],
  ["O=C1c2ccccc2C(=O)c2c1cc(NS(=O)(=O)c1ccc(Br)cc1)c(O)c2O [Compound 9m]", "PGAM1 (Homo sapiens, UniProt P18669)", "pIC50", "=", 6.59],
  ["COc1c(N(C)S(=O)(=O)c2ccc(Cl)cc2)cc2c(c1O)C(=O)c1ccccc1C2=O [Compound 14d]", "PGAM1 (Homo sapiens, UniProt P18669)", "pIC50", "=", 5.15],
  ["O=C1c2ccccc2C(=O)c2c1cc(NS(=O)(=O)c1ccccc1F)c(O)c2O [Compound 9g]", "PGAM1 (Homo sapiens, UniProt P18669)", "pIC50", "=", 6.10],
  ["N#Cc1ccc(S(=O)(=O)Nc2cc3c(c(O)c2O)C(=O)c2ccccc2C3=O)cc1 [Compound 9e]", "PGAM1 (Homo sapiens, UniProt P18669)", "pIC50", "=", 6.21],
  ["O=C1c2ccccc2C(=O)c2c1cc(NS(=O)(=O)c1c(Cl)cc(Cl)cc1Cl)c(O)c2O [Compound 9l]", "PGAM1 (Homo sapiens, UniProt P18669)", "pIC50", "=", 6.05],
  ["COc1c(NS(=O)(=O)c2ccc(Cl)cc2)cc2c(c1O)C(=O)c1ccccc1C2=O [Compound 14c]", "PGAM1 (Homo sapiens, UniProt P18669)", "pIC50", "=", 5.53]
]}
